TESTED TARGET: Estrogen receptor beta (Homo sapiens) (UniProt Q92731)
Sequence (Q92731 whole entry, looked up): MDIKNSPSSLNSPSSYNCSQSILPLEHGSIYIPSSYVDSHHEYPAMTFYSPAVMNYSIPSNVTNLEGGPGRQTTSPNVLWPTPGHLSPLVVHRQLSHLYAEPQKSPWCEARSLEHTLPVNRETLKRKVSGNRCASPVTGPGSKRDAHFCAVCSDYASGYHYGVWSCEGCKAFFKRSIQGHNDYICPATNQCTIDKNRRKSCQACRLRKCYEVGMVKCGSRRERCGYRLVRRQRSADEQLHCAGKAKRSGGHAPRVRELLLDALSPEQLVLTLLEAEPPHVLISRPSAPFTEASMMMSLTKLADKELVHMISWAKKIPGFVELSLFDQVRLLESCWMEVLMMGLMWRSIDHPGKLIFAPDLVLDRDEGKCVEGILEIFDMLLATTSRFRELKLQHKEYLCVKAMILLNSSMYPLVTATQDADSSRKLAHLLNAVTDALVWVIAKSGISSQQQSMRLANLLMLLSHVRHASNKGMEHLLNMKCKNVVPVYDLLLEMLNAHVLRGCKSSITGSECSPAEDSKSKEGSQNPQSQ
ASSAY TEXT: qHTS assay to identify small molecule agonists of the estrogen receptor beta (ER-beta) signaling pathway (AID 1259377)
CONDITIONS: ER-beta-UAS-bla HEK293T, beta-lactamase FRET ratio, 16 h; series mostly up to 92.4 µM
Inconclusive results are not listed. Activity calls are given as the source filed them. The call rests on the fitted dose curve; in most records, active means well fitted activation curve with a large enough effect in the signal ratio in the repeat runs (not every such curve was filed as active); inconclusive means weak or mixed curves, or effect the other way; inactive means flat fitted curve, though single readings scatter; the % refers to the signal ratio.
Classes to choose from: active, inactive

**Q:** Assay result, entry CCOC(=O)C1(c2ccccc2)CCN(CCC(C#N)(c2ccccc2)c2ccccc2)CC1 — outcome?
**A:** inactive

**Q:** Please indicate how the test categorized COc1cccc2c1C(=O)c1c(O)c3c(c(O)c1C2=O)C[C@@](O)(C(=O)CO)CC3OC1CC(N2CCOC(OC)C2)C(O)C(C)O1 (stereo not given in full) .
**A:** inactive

**Q:** Answer briefly: the call reported for CCC(C)c1cc([N+](=O)[O-])cc([N+](=O)[O-])c1OC(=O)C=C(C)C (stereo not given) in this assay.
**A:** inactive

**Q:** Would you mind telling me which call this test gave COC(=O)N(C(=O)N1CO[C@@]2(C(=O)OC)Cc3cc(Cl)ccc3C2=N1)c1ccc(OC(F)(F)F)cc1 ?
**A:** inactive

**Q:** Fill in: this test's call for O=C(Nc1ccc2[nH]ccc2c1)c1cc2cc(F)ccc2n1Cc1cccc(F)c1 is ___
**A:** inactive

**Q:** In this assay, the call recorded for COP(=S)(OC)Oc1cc(Cl)c(Br)cc1Cl was what?
**A:** inactive

**Q:** What classification did N#CNC#N end up with in this test?
**A:** inactive

**Q:** Please share the test call associated with Oc1cccc(-c2ccccc2)c1 .
**A:** active

**Q:** I'd appreciate the recorded outcome for CC(C)(C)c1cc([N+](=O)[O-])cc(C(C)(C)C)c1O from this test.
**A:** inactive

**Q:** Dear all, I need the recorded test outcome for CC(C)(C)C(O)/C(=C\c1ccc(Cl)cc1Cl)n1cncn1 (stereo not given) , thank you.
**A:** inactive
